- System: Fibroblast
- TEST DETAILS: Multiplex assay against human fibroblast
- Type: toxicity, cell-based
- EXPERIMENTAL CONDITIONS: 24 h, 1 µM, compound concentration 1 uM, replicate 2
PROPERTY NAME: Total Cell Count
Please give the numeric answer without any surrounding text.

MOLECULE | SYSTEM NAME | EXPERIMENTAL VALUE
C=CC(=O)Nc1ccc2ncnc(Nc3ccc(OCc4cccc(F)c4)c(Cl)c3)c2c1.Cc1ccc(S(=O)(=O)O)cc1 | Fibroblast | 90

Exercise: Need Total Cell Count of `CN(C)C(=O)/C(C#N)=C/c1ccc(-c2nc3cnc4[nH]ccc4c3n2C2CCCCC2)o1` , thanks.
Key: 81

Exercise: Query (molecule): c1cn2cc(-c3ccc4cn[nH]c4c3)nc(Nc3ccc(N4CCOCC4)cc3)c2n1 [ENTOSPLETINIB] ; field requested: Total Cell Count
Key: 78

Exercise: Find the recorded Total Cell Count belonging to C[C@@]1(C(=O)Nc2ccc(F)nc2)CCCN1c1nc(Nc2cc(C3CC3)n[nH]2)c2cccn2n1 [BMS-754807] and report it.
Key: 44

Exercise: # lookup: Total Cell Count of `Cn1cc(-c2[nH]c3cc(NC(=O)[C@H](N)C4CCCCC4)cc4c3c2C=NNC4=O)cn1`
Key: 52

Exercise: Looking for the measured Total Cell Count of `Cc1cc(C)cc(-c2cnc3cc(Cl)c(-c4cccc(O)c4)cc3c2OCCCN)c1` , can you help?
Key: 66

Exercise: Any idea what its Total Cell Count is? The molecule is CN(C)CC#Cc1ccc(OCCCc2sc(N3CCc4cccc(C(=O)Nc5nc6ccccc6s5)c4C3)nc2C(=O)O)c(F)c1 [A-1155463]
Key: 92

Exercise: Sample CN1CCC[C@@H]1CCO[C@](C)(c1ccccc1)c1ccc(Cl)cc1.O=C(O)/C=C/C(=O)O [CLEMASTINE FUMARATE] — what was its Total Cell Count?
Key: 107

====

- Tested on: Fibroblast
- TEST DETAILS: Multiplex assay against human fibroblast
- Type: toxicity, cell-based
- EXPERIMENTAL CONDITIONS: 48 h, 10 µM, compound concentration 10 uM, replicate 2
PROPERTY NAME: Population Apoptotic (%)
Record the value in %, omitting the unit from your answer.

COMPOUND | SYSTEM NAME | Population Apoptotic (%)
Cc1nc(-c2ccc(-c3ccc(C(=O)N4CCc5cc6c(cc54)C4(CCN(C)CC4)CO6)cc3)c(C)c2)no1 | Fibroblast | 100
CC(C)NCC(O)COc1ccc(CCOCC2CC2)cc1.Cl (configuration not stated) [BETAXOLOL HYDROCHLORIDE] | Fibroblast | 100

Exercise: Given `C=CC(=O)Nc1ccc2ncnc(Nc3ccc(OCc4cccc(F)c4)c(Cl)c3)c2c1.Cc1ccc(S(=O)(=O)O)cc1` , state its recorded Population Apoptotic (%).
Key: 100

Exercise: # query: Population Apoptotic (%) of entry `CCOCCn1cc(C(=O)Nc2ccc(-n3nc(-c4cccnc4)cc3C(F)(F)F)cn2)ccc1=O`
Key: 0

Exercise: # input compound: O=C1NCN(c2ccccc2)C12CCN(CCCOc1ccc(F)cc1)CC2 [SPIRAMIDE] ; wanted: its Population Apoptotic (%)
Key: 50

Exercise: Would you mind telling me what Population Apoptotic (%) value was observed for CN1CCCC(n2nc(Cc3ccc(Cl)cc3)c3ccccc3c2=O)CC1.Cl (configuration not stated) [AZELASTINE HYDROCHLORIDE] ?
Key: 66

Exercise: Endpoint output: Population Apoptotic (%) of `CC(C)(O)CNc1ncc(-c2ccnc(Nc3ccnc(Cl)c3)n2)c(CC2CC2)n1` . Value?
Key: 29

Exercise: Give its Population Apoptotic (%) value. Item: `C[C@@]1(C(=O)Nc2ccc(F)nc2)CCCN1c1nc(Nc2cc(C3CC3)n[nH]2)c2cccn2n1`
Key: 70

Exercise: Using the record for `COc1cc(-n2cnc3cc(-c4ccc(Cl)cc4)sc3c2=O)ccc1OCCN1CCCC1` , report its Population Apoptotic (%).
Key: 63

Exercise: Request the reported Population Apoptotic (%) associated with `CCn1c(=O)c(-c2ccc(Cl)cc2Cl)cc2cnc(Nc3ccc(N4CCNCC4)c(F)c3)nc21`
Key: 71

Exercise: State the recorded Population Apoptotic (%) for this entry: `Cc1[nH]c(/C=C2\C(=O)Nc3ccc(S(=O)(=O)N(C)c4cccc(Cl)c4)cc32)c(C)c1C(=O)N1CCN(C)CC1`
Key: 50

Exercise: Fill in the blank: the reported Population Apoptotic (%) of `OC1(c2ccc(Cl)cc2)CCN(Cc2c[nH]c3ccccc23)CC1` is ____.
Key: 90

Exercise: Suppose we examine the compound Cl.N#Cc1ccc2[nH]cc(CCCCN3CCN(c4ccc5oc(C(N)=O)cc5c4)CC3)c2c1 [VILAZODONE HYDROCHLORIDE] ; what Population Apoptotic (%) value has been reported?
Key: 34

====

- Test system: HEK-293T
- TEST DETAILS: Multiplex assay against HEK293T
- Format: toxicity, cell-based
- EXPERIMENTAL CONDITIONS: human, 12 h, 1 µM, compound concentration 1 uM, replicate 2
Listed here are molecules together with their documented Population Apoptotic (%).
Reply numerically in %, unit not repeated.

Below are worked cases with known answers.
MOLECULE | EXPERIMENTAL VALUE
CC[C@H](C)C(=O)O[C@H]1C[C@@H](C)C=C2C=C[C@H](C)[C@H](CC[C@@H]3C[C@@H](O)CC(=O)O3)[C@H]21 [LOVASTATIN] | 7
C[C@@H](NCCCc1cccc(C(F)(F)F)c1)c1cccc2ccccc12.Cl [CINACALCET HYDROCHLORIDE] | 16
O=C1NCN(c2ccccc2)C12CCN(CCCOc1ccc(F)cc1)CC2 [SPIRAMIDE] | 11
COc1cccc([C@@H](C)NCCCc2ccccc2Cl)c1.Cl [TECALCET HYDROCHLORIDE] | 16
CN(C)C(=O)/C(C#N)=C/c1ccc(-c2nc3cnc4[nH]ccc4c3n2C2CCCCC2)o1 | 21

Exercise: Quick one: Population Apoptotic (%) of `Cn1cc(-c2[nH]c3cc(NC(=O)[C@H](N)C4CCCCC4)cc4c3c2C=NNC4=O)cn1` ?
Key: 17

Exercise: Sample `C=CC(=O)Nc1ccc2ncnc(Nc3ccc(OCc4cccc(F)c4)c(Cl)c3)c2c1.Cc1ccc(S(=O)(=O)O)cc1` — what was its Population Apoptotic (%)?
Key: 11

Exercise: May I ask what Population Apoptotic (%) has been recorded for Cc1nc(-c2cn3c(n2)-c2ccc(-c4cnn(C(C)(C)C(N)=O)c4)cc2OCC3)n(C(C)C)n1 [TASELISIB] ?
Key: 17

====

- System: HEK-293T
- TEST DETAILS: Multiplex assay against HEK293T
- Assay type: toxicity, cell-based
- EXPERIMENTAL CONDITIONS: human, 12 h, 1 µM, compound concentration 1 uM, replicate 1
Answer NOT MET if Population Mitochondria Different-Phenotype (%) is under 90%, and MET if it is 90% or more.

Answered cases to consult:
COMPOUND | CATEGORY
CN(C)CC#Cc1ccc(OCCCc2sc(N3CCc4cccc(C(=O)Nc5nc6ccccc6s5)c4C3)nc2C(=O)O)c(F)c1 | NOT MET
CN(C)C(=O)/C(C#N)=C/c1ccc(-c2nc3cnc4[nH]ccc4c3n2C2CCCCC2)o1 | NOT MET
Cl.N#Cc1ccc2[nH]cc(CCCCN3CCN(c4ccc5oc(C(N)=O)cc5c4)CC3)c2c1 [VILAZODONE HYDROCHLORIDE] | MET
CN1CCC[C@@H]1CCO[C@](C)(c1ccccc1)c1ccc(Cl)cc1.O=C(O)/C=C/C(=O)O [CLEMASTINE FUMARATE] | MET
C=CC(=O)Nc1ccc2ncnc(Nc3ccc(OCc4cccc(F)c4)c(Cl)c3)c2c1.Cc1ccc(S(=O)(=O)O)cc1 | NOT MET

Exercise: # bool: Population Mitochondria Different-Phenotype (%) of CN1CCCC(n2nc(Cc3ccc(Cl)cc3)c3ccccc3c2=O)CC1.Cl (centres undefined) [AZELASTINE HYDROCHLORIDE] >= 90%
Key: MET

Exercise: Given the entry `CNc1nc(NCc2ccc(NS(C)(=O)=O)cc2Cl)cc(-c2ccccn2)n1` , answer whether its Population Mitochondria Different-Phenotype (%) meets or surpasses 90%.
Key: NOT MET

Exercise: Entry `COc1cc(-n2cnc3cc(-c4ccc(Cl)cc4)sc3c2=O)ccc1OCCN1CCCC1` : is its Population Mitochondria Different-Phenotype (%) no less than 90%?
Key: MET

Exercise: Entry `OC1(c2ccc(Cl)cc2)CCN(Cc2c[nH]c3ccccc23)CC1` : is its Population Mitochondria Different-Phenotype (%) no less than 90%?
Key: NOT MET

Exercise: Has `Cc1c(-c2ccc(O)cc2)n(Cc2ccc(OCCN3CCCCCC3)cc2)c2ccc(O)cc12` a recorded Population Mitochondria Different-Phenotype (%) greater than or equal to 90%?
Key: MET

Exercise: Confirm if Population Mitochondria Different-Phenotype (%) reported for the compound `Cc1nc(-c2ccc(-c3ccc(C(=O)N4CCc5cc6c(cc54)C4(CCN(C)CC4)CO6)cc3)c(C)c2)no1` is 90% or above.
Key: MET

Exercise: Record COc1cccc([C@@H](C)NCCCc2ccccc2Cl)c1.Cl [TECALCET HYDROCHLORIDE] ; criterion: Population Mitochondria Different-Phenotype (%) no lower than 90%. Met?
Key: NOT MET

Exercise: Determine whether this compound has Population Mitochondria Different-Phenotype (%) no lower than 90%: O=C1NCN(c2ccccc2)C12CCN(CCCOc1ccc(F)cc1)CC2 [SPIRAMIDE]
Key: NOT MET
